biological target: human IL-17A (human, UniProt Q16552 24-155, biotinylated with Sulfo-NHS-LC-Biotin in the AlphaScreen assays only); assay: cell-based or functional assay
Sequence (Q16552 other isoform, or with tags, fused parts or gaps): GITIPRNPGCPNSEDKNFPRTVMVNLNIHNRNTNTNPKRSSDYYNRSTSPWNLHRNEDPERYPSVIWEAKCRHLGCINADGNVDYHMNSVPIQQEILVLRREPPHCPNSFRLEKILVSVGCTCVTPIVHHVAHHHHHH
quantity-measured: IL-17A-induced IL-6 production in HT-1080 cells, IC50 (nM)
Numbers only, in nM.

Request: Fill in: IL-17A-induced IL-6 production in HT-1080 cells, IC50 of 01G03 (VHH, Class 1 Nanobody (anti-IL-17A); not shown: c-myc, His6 tag) VHH: EVQLVESGGGLVQAGGSLRLSCAASERTISNYDMGWFRQAPGKERELIAADISWSALNTNYADSVKGRFTISRDNAKNMVYLQMNNLKPEDTAVYYCAARRSGYASFDNWGQGTQVTVSS is ___
Result: 68.3

Lab note: next binder to report on.
Request: Fill in: IL-17A-induced IL-6 production in HT-1080 cells, IC50 of 11C08 (VHH, Class 4 Nanobody (cross-reactive: anti-IL-17A, IL-17F and IL-17A/F); not shown: c-myc, His6 tag) VHH: EVQLVESGGGLVQAGGSLRLSCAASGVIFRLNAMGWYRAAPGKQRELVAIIVNGGSTNYADSVKGRFTISRDSAKNAVYLQMNSLKPEDTAVYYCYYNIPGDVYWGQGTQVTVSS is ___
Result: 130
